# Tested on: SARS-CoV-2-NLuc in A549-hACE2 cells
# Assay Info: microbe, parasite or virus in culture
# Format: cell-based, SARS Coronavirus 2
# Test Conditions: Severe acute respiratory syndrome coronavirus, 48 h, read-out: MPro EC50 (nM)
Reported Metric: EC50 (nM)
Write down the numeric answer in nM and omit the unit.

[Q] Kindly state the measured EC50 obtained for "N#CCn1c(=O)n(-c2cncc3ccccc23)c(=O)c2oc(-c3ccccc3Cl)cc21" with SARS-CoV-2-NLuc in A549-hACE2 cells.
[A] 20.1

[Q] Kindly state the measured EC50 obtained for "Cc1cncc(-n2c(=O)c3oc(-c4ccccc4Cl)cc3n(CC#N)c2=O)c1" with SARS-CoV-2-NLuc in A549-hACE2 cells.
[A] 52.3

[Q] Kindly state the measured EC50 obtained for "N#CCCn1c(=O)n(-c2cncc3ccccc23)c(=O)c2oc(-c3ccccc3Cl)cc21" with SARS-CoV-2-NLuc in A549-hACE2 cells.
[A] 13

[Q] Kindly state the measured EC50 obtained for "COc1cc(-c2cc3c(o2)c(=O)n(-c2cccnn2)c(=O)n3CCC#N)c(Cl)cc1F" with SARS-CoV-2-NLuc in A549-hACE2 cells.
[A] 408
